Target: WT TTR (Homo sapiens)
Construct: made in house; host or cells: E. coli
Test: Isothermal titration calorimetry
Format: binding
Settings: read-out: Kd2; negative cooperativity, ITC
pKd: −log10 of the molar value.
METRIC NAME: pKd

INSERT INTO assay_data (chemical_smiles, measured) VALUES
  ('O=c1c(-c2ccc(O)cc2)coc2cc(O)cc(O)c12', 5.85);

###

Molecular target: WT TTR (Homo sapiens, UniProt P02766)
Construct: made in house; host or cells: E. coli
Experiment: Isothermal titration calorimetry
Type: binding
Conditions: read-out: Kd2; two sequential interacting binding sites model (negative cooperativity); pH 8.0, 25° C.
METRIC NAME: Kd (nM)

INSERT INTO measurements (compound, test_target, measured) VALUES
  ('O=c1c(-c2ccc(O)cc2)coc2cc(O)cc(O)c12 [genistein]', 'WT TTR (Homo sapiens, UniProt P02766)', 1400);

###

Target: WT TTR (Homo sapiens)
Construct: made in house; host or cells: E. coli
Test: Isothermal titration calorimetry
Format: binding
Settings: Kd1=Kd2, two identical non-interacting sites model; pH 8.0, 25° C.
METRIC NAME: Kd (nM)

INSERT INTO measurements (chemical_smiles, metric_name, measured) VALUES
  ('O=c1c(-c2ccc(O)cc2)coc2cc(O)cc(O)c12', 'Kd', 845);

###

Molecular target: WT TTR (Homo sapiens, UniProt P02766)
Construct: made in house; host or cells: E. coli
Test: Isothermal titration calorimetry
Assay type: binding
Conditions: Kd1, two sequential interacting binding sites model (negative cooperativity); pH 8.0, 25° C.
Protocol: The dissociation constants characterizing the binding of genistein to WT TTR were determined using a Microcal isothermal titration calorimeter (Microcal Inc., Northhampton, Mass.). A solution of the small molecule (final concentration 432 μM in 25 mM Tris (pH 8.0) containing 100 mM KCl, 1 mM EDTA, 10% EtOH,) was prepared and titrated into an ITC cell containing WT TTR (12 μM in 25 mM Tris (pH 8.0) containing 100 mM KCl, 1 mM EDTA, 10% EtOH). […]
METRIC NAME: Kd (nM)

INSERT INTO assay_data (chemical_smiles, metric_name, value_units, measured) VALUES
  ('O=c1c(-c2ccc(O)cc2)coc2cc(O)cc(O)c12', 'Kd', 'nM', 40);

Hello, the source for this data is patent US20070037875A1, in case you need it.
